Experiment: Pharmacokinetic study in rats after intragastric and intravenous administration (plasma, UHPLC-MS/MS)
Format: in vivo, Sprague-Dawley rats
Conditions: Sprague-Dawley; rat plasma, intravenous 5 mg/kg; read-out: MRT(0-t)
quantity name: MRT last

QUERY: Given `C#Cc1c(F)ccc2cc(O)cc(-c3ncc4c(N5CC6CCC(C5)N6)nc(OC[C@@]56CCCN5C[C@H](F)C6)nc4c3F)c12` , state its recorded MRT last.
RESULT: 1.34 h

====

Assay: Tissue distribution in rats after single intravenous administration
Type: in vivo, Sprague-Dawley rats
Conditions: Sprague-Dawley, pancreas; rat, intravenous 5 mg/kg, after 6 h, n = 5; read-out: highest concentration in pancreas
quantity name: concentration at 6 h (ng/g)
Kindly answer with a numeric value in ng/g, unit omitted.

QUERY: Given `C#Cc1c(F)ccc2cc(O)cc(-c3ncc4c(N5CC6CCC(C5)N6)nc(OC[C@@]56CCCN5C[C@H](F)C6)nc4c3F)c12` , state its recorded concentration at 6 h.
RESULT: 156

====

Test: Tissue distribution in rats after single intravenous administration
Type: in vivo, Sprague-Dawley rats
Details: Sprague-Dawley, kidney; rat, intravenous 5 mg/kg, after 2 h, n = 5; read-out: highest concentration in kidney
quantity name: concentration at 2 h (ng/g)
Kindly answer with a numeric value in ng/g, unit omitted.

QUERY: Given C#Cc1c(F)ccc2cc(O)cc(-c3ncc4c(N5CC6CCC(C5)N6)nc(OC[C@@]56CCCN5C[C@H](F)C6)nc4c3F)c12 [MRTX1133] , state its recorded concentration at 2 h.
RESULT: 2580

====

Assay: Pharmacokinetic study in rats after intragastric and intravenous administration (plasma, UHPLC-MS/MS)
Format: in vivo, Sprague-Dawley rats
Conditions: Sprague-Dawley; rat plasma, oral 25 mg/kg
quantity name: half-life (h)
Kindly answer with a numeric value in h, unit omitted.

QUERY: Given `C#Cc1c(F)ccc2cc(O)cc(-c3ncc4c(N5CC6CCC(C5)N6)nc(OC[C@@]56CCCN5C[C@H](F)C6)nc4c3F)c12` , state its recorded half-life.
RESULT: 1.12

====

Test: Tissue distribution in rats after single intravenous administration
Format: in vivo, Sprague-Dawley rats
Conditions: Sprague-Dawley, spleen; rat, intravenous 5 mg/kg, after 6 h, n = 5; read-out: highest concentration in spleen
quantity name: concentration at 6 h (ng/g)
Kindly answer with a numeric value in ng/g, unit omitted.

QUERY: Given `C#Cc1c(F)ccc2cc(O)cc(-c3ncc4c(N5CC6CCC(C5)N6)nc(OC[C@@]56CCCN5C[C@H](F)C6)nc4c3F)c12` , state its recorded concentration at 6 h.
RESULT: 1860

====

Assay: Pharmacokinetic study in rats after intragastric and intravenous administration (plasma, UHPLC-MS/MS)
Assay type: in vivo, Sprague-Dawley rats
Settings: Sprague-Dawley; rat plasma, oral (intragastric) 25 mg/kg, n = 10
Description: The pharmacokinetic study was performed using oral solutions of MRTX1133 in 5% carboxymethyl-cellulose sodium (CMC-Na) at a concentration of 2.5 mg mL^-1 (the dose was 25 mg kg^-1 and 10 mL kg^-1). The intravenous solution was prepared at a concentration of 5 mg mL^-1 in polyethylene glycol 400 and dimethyl sulfoxide (8%). […]
quantity name: AUC(0-t) (ng·h/mL)
Kindly answer with a numeric value in ng·h/mL, unit omitted.

QUERY: Given `C#Cc1c(F)ccc2cc(O)cc(-c3ncc4c(N5CC6CCC(C5)N6)nc(OC[C@@]56CCCN5C[C@H](F)C6)nc4c3F)c12` , state its recorded AUC(0-t).
RESULT: 136

====

Test: Pharmacokinetic study in rats after intragastric and intravenous administration (plasma, UHPLC-MS/MS)
Format: in vivo, Sprague-Dawley rats
Settings: Sprague-Dawley; rat plasma, intravenous 5 mg/kg
quantity name: half-life
State the value, then name its unit.

QUERY: Given C#Cc1c(F)ccc2cc(O)cc(-c3ncc4c(N5CC6CCC(C5)N6)nc(OC[C@@]56CCCN5C[C@H](F)C6)nc4c3F)c12 [MRTX1133] , state its recorded half-life.
RESULT: 2.88 h

====

Test: Pharmacokinetic study in rats after intragastric and intravenous administration (plasma, UHPLC-MS/MS)
Assay type: in vivo, Sprague-Dawley rats
Conditions: Sprague-Dawley; rat plasma, oral 25 mg/kg
quantity name: Cmax (ng/mL)
Kindly answer with a numeric value in ng/mL, unit omitted.

QUERY: Given C#Cc1c(F)ccc2cc(O)cc(-c3ncc4c(N5CC6CCC(C5)N6)nc(OC[C@@]56CCCN5C[C@H](F)C6)nc4c3F)c12 [MRTX1133] , state its recorded Cmax.
RESULT: 130

====

Test: Pharmacokinetic study in rats after intragastric and intravenous administration (plasma, UHPLC-MS/MS)
Format: in vivo, Sprague-Dawley rats
Settings: Sprague-Dawley; rat plasma, intravenous 5 mg/kg, n = 10
quantity name: AUC(0-t) (ng·h/mL)
Kindly answer with a numeric value in ng·h/mL, unit omitted.

QUERY: Given `C#Cc1c(F)ccc2cc(O)cc(-c3ncc4c(N5CC6CCC(C5)N6)nc(OC[C@@]56CCCN5C[C@H](F)C6)nc4c3F)c12` , state its recorded AUC(0-t).
RESULT: 928

====

Test: Pharmacokinetic study in rats after intragastric and intravenous administration (plasma, UHPLC-MS/MS)
Assay type: in vivo, Sprague-Dawley rats
Settings: Sprague-Dawley, plasma; rat, oral 25 mg/kg; read-out: CL/F (converted)
quantity name: CL/F (L/h/kg)
Kindly answer with a numeric value in L/h/kg, unit omitted.

QUERY: Given `C#Cc1c(F)ccc2cc(O)cc(-c3ncc4c(N5CC6CCC(C5)N6)nc(OC[C@@]56CCCN5C[C@H](F)C6)nc4c3F)c12` , state its recorded CL/F.
RESULT: 199

====

Assay: Tissue distribution in rats after single intravenous administration
Assay type: in vivo, Sprague-Dawley rats
Settings: Sprague-Dawley, liver; rat, intravenous 5 mg/kg, at 1 h, n = 5; read-out: highest concentration in liver
quantity name: concentration at 1 h (ng/g)
Kindly answer with a numeric value in ng/g, unit omitted.

QUERY: Given `C#Cc1c(F)ccc2cc(O)cc(-c3ncc4c(N5CC6CCC(C5)N6)nc(OC[C@@]56CCCN5C[C@H](F)C6)nc4c3F)c12` , state its recorded concentration at 1 h.
RESULT: 5360
